Ref: paper PMC3526301

assayed target: human alpha-thrombin (Homo sapiens) (UniProt P00734+P00734)
assay remarks: fibrin formation inhibition (OD350)
measurement context: 50 mM Tris, 100 mM NaCl, 1 mM MgCl2, 5 mM KCl, 1 mM CaCl2, 0.01% Tween 20, pH 7.5 (selection buffer), 1 h room temperature …
reported metric: pKi
Units for pKi: none; it is -log10 of a concentration expressed in mol/L.

**Query** Requested read-out: pKi. Entry: GGTTGGTGTGGTTGG [Bock-15]
**Result** 8.58
